Molecular target: T1, Fusion protein of extracellular domain of human TIGIT and mouse IgG2a Fc fragment (human TIGIT ECD-mFc) (human)
T1 construct: The entry includes the signal peptide (limits not recoverable) and the mouse IgG2a Fc
T1 chain: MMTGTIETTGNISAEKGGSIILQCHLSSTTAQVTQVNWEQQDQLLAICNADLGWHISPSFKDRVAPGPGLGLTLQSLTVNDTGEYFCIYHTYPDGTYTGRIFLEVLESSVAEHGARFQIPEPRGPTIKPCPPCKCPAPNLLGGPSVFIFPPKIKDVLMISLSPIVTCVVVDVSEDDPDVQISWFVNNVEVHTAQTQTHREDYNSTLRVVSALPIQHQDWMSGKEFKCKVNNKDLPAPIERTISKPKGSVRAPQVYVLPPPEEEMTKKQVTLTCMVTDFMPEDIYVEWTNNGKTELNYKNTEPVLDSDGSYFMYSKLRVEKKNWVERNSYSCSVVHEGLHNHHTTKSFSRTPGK
Assay: FACS; blocking of TIGIT ECD-mFc binding to CHO-K1 CD112 cells
pIC50: −log10 of the molar value.
Measured endpoint: pIC50

# Binder, Observed measurement
records = [
    ("TIGIT-005-H2L1d (antibody, V domains shown, Humanized anti-TIGIT antibody with NG-site mutation in VL) VH: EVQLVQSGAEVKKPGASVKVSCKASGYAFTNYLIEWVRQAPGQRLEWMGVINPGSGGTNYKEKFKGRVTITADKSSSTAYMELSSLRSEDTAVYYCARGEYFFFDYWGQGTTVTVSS VL: DIVMTQSPDSLAVSLGERATINCKASQHVSNAVAWYQHKPGQSPKLLIYSASYRYTGVPDRFSGSGSGTDFTLTISSLQAEDVAVYYCQQHYNTPHTFGGGTKVEIK", 8.46),
]

Where do these numbers come from? They come from patent US20240343803A1.
